Taken from the Immune Epitope Database (IEDB).

# TARGET_UNDER_TEST: HLA-A*11:01
# RUN_DESCRIPTION: IEDB peptide-MHC binding, purified MHC/competitive/radioactivity; filed as Kd, often an IC50 or EC50 that approximates it; bounds were set here for any values at or beyond the usual limits of such assays
# MEASUREMENT_CONTEXT: source organism: Vaccinia virus Copenhagen
MEASUREMENT_LABEL: Kd (nM)
Number only, in nM; omit the unit.

Ask: Return the recorded Kd value; entry: "ILDDNLYKV"
Result: 2760

----------
The following sequences are listed with their measured pKd values.
# TARGET_UNDER_TEST: HLA-B*40:01
# RUN_DESCRIPTION: IEDB peptide-MHC binding, purified MHC/direct/fluorescence; filed as Kd, often an IC50 or EC50 that approximates it; bounds were set here for any values at or beyond the usual limits of such assays
# MEASUREMENT_CONTEXT: source organism: Giardia lamblia ATCC 50803
pKd: −log10 of the molar value.

1. IFKNLTKPL; ≤ 4.70

Ask: Return the recorded pKd value; entry: "FMGRLGPEY"
Result: ≤ 4.70

Ask: Return the recorded pKd value; entry: "KSNRIPFLY"
Result: ≤ 4.70

----------
# TARGET_UNDER_TEST: HLA-A*26:01
# RUN_DESCRIPTION: IEDB peptide-MHC binding, purified MHC/competitive/fluorescence; filed as Kd, often an IC50 or EC50 that approximates it; bounds were set here for any values at or beyond the usual limits of such assays
# MEASUREMENT_CONTEXT: source organism: Choclo virus
MEASUREMENT_LABEL: Kd

Ask: Return the recorded Kd value; entry: "VMGVIGFGF"
Result: ≥ 20 µM

----------
# TARGET_UNDER_TEST: HLA-A*02:12
# RUN_DESCRIPTION: IEDB peptide-MHC binding, purified MHC/direct/fluorescence; filed as Kd, often an IC50 or EC50 that approximates it; bounds were set here for any values at or beyond the usual limits of such assays
# MEASUREMENT_CONTEXT: source organism: Influenza A virus(A/swine/Henan/8/2004(H9N2))
MEASUREMENT_LABEL: pKd
Note on units: pKd is unitless, being -log10 of a concentration expressed in mol/L.

Ask: Return the recorded pKd value; entry: "SLPPNFSSL"
Result: 8.30

----------
The following sequences are listed with their measured pKd values.
# TARGET_UNDER_TEST: HLA-B*48:01
# RUN_DESCRIPTION: IEDB peptide-MHC binding, purified MHC/direct/fluorescence; filed as Kd, often an IC50 or EC50 that approximates it; bounds were set here for any values at or beyond the usual limits of such assays
# MEASUREMENT_CONTEXT: source organism: Marburg virus - Musoke, Kenya, 1980
pKd: −log10 of the molar value.

1. ISDPLTSGL; ≤ 4.70

Now take the following sequence into account.
Ask: Return the recorded pKd value; entry: "IHLDKGGQF"
Result: ≤ 4.70

----------
# TARGET_UNDER_TEST: HLA-B*07:02
# RUN_DESCRIPTION: IEDB peptide-MHC binding, purified MHC/competitive/fluorescence; bounds were set here for any values at or beyond the usual limits of such assays
# MEASUREMENT_CONTEXT: source organism: Influenza A virus (A/Oklahoma/309/2006(H3N2))
MEASUREMENT_LABEL: IC50 (nM)
Number only, in nM; omit the unit.

Ask: Return the recorded IC50 value; entry: "NPIVPSFDM"
Result: 1230
